pIC50 overview
Molecular target: USP25 (USP25-His6, Boston Biochem E-546) (Homo sapiens, UniProt Q9UHP3)
Construct: His6 (C); purchased Boston Biochem E-546
Sequence (Q9UHP3 1-1055): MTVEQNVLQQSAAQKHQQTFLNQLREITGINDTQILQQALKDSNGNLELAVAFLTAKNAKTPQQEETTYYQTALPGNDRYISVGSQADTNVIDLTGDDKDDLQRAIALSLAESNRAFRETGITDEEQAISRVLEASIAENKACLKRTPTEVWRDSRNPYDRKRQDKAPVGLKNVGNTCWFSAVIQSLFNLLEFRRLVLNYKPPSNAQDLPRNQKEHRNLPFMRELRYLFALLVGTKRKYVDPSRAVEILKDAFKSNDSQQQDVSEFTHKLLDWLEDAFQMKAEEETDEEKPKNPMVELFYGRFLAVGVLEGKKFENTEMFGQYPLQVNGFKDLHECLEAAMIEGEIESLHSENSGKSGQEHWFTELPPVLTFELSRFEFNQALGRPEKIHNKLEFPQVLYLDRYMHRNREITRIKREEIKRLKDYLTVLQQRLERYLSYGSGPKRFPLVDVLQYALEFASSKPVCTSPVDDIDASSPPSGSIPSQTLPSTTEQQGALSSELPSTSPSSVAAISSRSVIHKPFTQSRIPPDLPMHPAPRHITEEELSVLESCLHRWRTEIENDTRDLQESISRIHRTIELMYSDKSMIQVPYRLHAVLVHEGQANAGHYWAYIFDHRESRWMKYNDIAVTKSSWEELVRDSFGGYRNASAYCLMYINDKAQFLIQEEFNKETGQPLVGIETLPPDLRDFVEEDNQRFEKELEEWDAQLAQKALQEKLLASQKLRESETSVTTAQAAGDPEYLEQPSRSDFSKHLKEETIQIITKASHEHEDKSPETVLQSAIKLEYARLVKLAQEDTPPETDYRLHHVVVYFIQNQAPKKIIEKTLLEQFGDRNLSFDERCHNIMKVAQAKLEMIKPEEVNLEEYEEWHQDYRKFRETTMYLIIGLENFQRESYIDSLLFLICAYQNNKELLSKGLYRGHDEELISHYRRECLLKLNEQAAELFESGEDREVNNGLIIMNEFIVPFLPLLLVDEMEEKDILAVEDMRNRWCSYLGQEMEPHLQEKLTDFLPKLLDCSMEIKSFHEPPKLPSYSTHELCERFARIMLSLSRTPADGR
Experiment: Ubiquitin-Rhodamine 110 Assay for USP25 Activity, Example A-3
Assay type: biochemical
Settings: Ubiquitin-Rhodamine 110 assay, Example A-3; IC50 ranges; read-out: USP25 A-3 IC50
pIC50: −log10 of the molar value.

Use these answered entries as a reference point.
[
  {
    "molecule": "N#Cc1c(N2CC3CCC(C2)N3)cc(F)c2c1OC[C@H](NC(=O)c1cnc3c(c1)[C@@H]1CC1CN3)C2 (stereo partly drawn)",
    "endpoint_result": "5.70 to 6.70"
  },
  {
    "molecule": "Cc1ccc2c(N)c(C(=O)N[C@H]3COc4cc(N5CC[C@@H]6CCC(N)C[C@@H]65)ccc4C3)sc2n1 (stereo in doubt)",
    "endpoint_result": "6.70 to 7.30"
  }
]

May I ask what pIC50 has been recorded for "Cc1cc(C)c2c(N)c(C(=O)N[C@H]3COc4cc(N5CC6CCC(C5)N6)c(C#N)c(F)c4C3)sc2n1" ? 6.70 to 7.30
